# measured-target: T1, MBP-tagged JPH2 (1 to 161, 275 to 437) (human, UniProt Q9BR39-1 1-161; Q9BR39-1 275-437)
# T1 chain (looked up): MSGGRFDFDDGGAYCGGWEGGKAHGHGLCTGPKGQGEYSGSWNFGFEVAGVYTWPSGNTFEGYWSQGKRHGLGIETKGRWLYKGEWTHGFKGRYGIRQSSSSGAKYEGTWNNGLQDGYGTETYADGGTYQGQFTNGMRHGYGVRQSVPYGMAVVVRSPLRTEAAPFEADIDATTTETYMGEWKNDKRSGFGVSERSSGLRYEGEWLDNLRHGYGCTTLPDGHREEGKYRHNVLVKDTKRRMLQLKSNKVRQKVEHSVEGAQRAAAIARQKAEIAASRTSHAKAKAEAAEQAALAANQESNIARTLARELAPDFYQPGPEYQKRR
# assay-procedure: ITC
pKd: −log10 of the molar value.
experimental-readout: pKd

INSERT INTO assay_data (binder, result_number) VALUES
  ('EERIFRRTGGLFGQVD (peptide, UniProt P07293 1594-1609, looked up) [CaV1.1 peptide (rabbit CaV1.1 residues 1594 to 1609)]', 5.74);

The reported numbers originate from paper PMC8916002.
